Entry source: PubChem BioAssay (NCI)

# Test system: OVCAR-8 ovarian
# assay.method.text: NCI tumour cell line growth inhibition, 48 h
We begin with a simple list: items and their reported TGI.

[
  {
    "compound": "c1ccc2c(CNCCCCCCCCNCc3cccc4ccccc34)cccc2c1",
    "data.value": "3.5 µM"
  },
  {
    "compound": "CC(=O)n1[nH]c(=O)n(-c2ccccc2)c1=O",
    "data.value": "> 100 µM"
  },
  {
    "compound": "O=CN1CCC23CC(O)CCC2C1Cc1cc(Oc2nnnn2-c2ccccc2)cc(O)c13 (stereo not given)",
    "data.value": "> 100 µM"
  },
  {
    "compound": "CN1CC2=C(NC(=S)NC2c2ccccc2Cl)/C(=C/c2ccccc2Cl)C1 (stereo not given)",
    "data.value": "> 100 µM"
  },
  {
    "compound": "CCN(CC)Cc1cc(Nc2ccnc3ccc4nn(C)nc4c23)ccc1O",
    "data.value": "50.7 µM"
  }
]

Q) Entry `O=[N+]([O-])c1oc2ccc3ccccc3c2c1CCO` : reported TGI = ?
A) 23.1 µM
